Measured growth of individual entries
Test system: OVCAR-5 ovarian
Test: NCI-60 one-dose screen, 48 h (100 = growth as untreated, 0 = no growth, -100 = all killed)
Details: 10 µM unless noted
About 83,000 compounds went through this panel and 20% of them were active in at least one assay; those are over-represented in the sample as a whole.
A number alone suffices; assume %.

Here are 3 molecules together with their reported answers.
1) Cc1ccc(NC(=O)c2nc(S(C)=O)oc2-c2ccc(F)cc2)cc1Nc1nccc(-c2cccnc2)n1 (centres undefined) | 112
2) NCCCOc1cc2ccccc2cc1C(=O)NCCCOc1cc2ccccc2cc1C(=O)Nc1ccc(Cl)cc1O | -92.5
3) Oc1c(-c2cc(C(F)(F)F)[nH]n2)cc(Cl)c(OCc2ccc(Cl)cc2)c1-c1ccc(Cl)c(C(F)(F)F)c1 | 30.3

Bench note, OVCAR-5 ovarian: entry C#CC[C@@H]1C[C@]2(C)[C@H]3CC[C@@H]4[C@H]5C(C(=C)C)CC[C@]5(C(=O)NCCCCCCCCN)CC[C@@]4(C)[C@]3(C)CC[C@H]2C(C)(C)[C@H]1OC(C)=O (some centres undefined) , its growth = 108

Bench note, OVCAR-5 ovarian: entry CCN(CC)Cc1cc(Nc2ccnc3cc(Cl)ccc23)cc(-c2ccc(Cl)cc2)c1O , its growth = 54.2

Bench note, OVCAR-5 ovarian: entry CC1C2CCC(C2)C1COCCOCCO (centres undefined) , its growth = 107

Bench note, OVCAR-5 ovarian: entry COc1ccc(C2CC(c3ccc(Nc4ccnc5cc(Cl)ccc45)cc3)=NN2c2ccccc2)cc1 (centres undefined) , its growth = 86.2

Bench note, OVCAR-5 ovarian: entry Cc1ccc(S(=O)(=O)NC(CCC(=O)Nc2ccc(Cl)cc2)C(=O)Nc2ccc(Cl)cc2)cc1 (centres undefined) , its growth = 67.8

Bench note, OVCAR-5 ovarian: entry O=C(Nc1ccc(OS(=O)(=O)c2ccc(F)cc2)cc1)C12CC3CC(CC(C3)C1)C2 , its growth = 100

* * *

Tested on: SF-295 CNS
Experiment: NCI-60 one-dose screen, 48 h
Conditions: 10 µM unless noted
About 83,000 compounds went through this panel and 20% of them were active in at least one assay; those are over-represented in the sample as a whole. The source made the active and inactive calls. Rule for the calls: active = growth percent below 10; inactive = the rest.
# output must be one of 1 (yes) for active, 0 (no) for inactive

Solved entries (count: 8):
1. COc1ccc(NC(=O)/C=C/c2ccc(NC(=O)N3CCCC3)cc2)cn1 | 0 (no)
2. C=C(C)C1CCC2(C(=O)O)CCC3(C)C(CCC4C5(C)CCC(O)C(C)(C)C5CCC43C)C12 (stereo not given) | 1 (yes)
3. C/C=C(\C)C(C(=O)NC1CCCCC1)N(C(=O)C1CCc2cc(F)ccc2O1)c1ccc([N+](=O)[O-])cc1 (stereo not given) | 0 (no)
4. O=Cc1ccc2nc(C(Cl)(Cl)Cl)ccc2c1 | 0 (no)
5. Cc1cc(NC(=O)c2ccc(N)cc2)ccc1N=Nc1ccc2cc(S(=O)(=O)O)cc(S(=O)(=O)O)c2c1 | 0 (no)
6. CCCCCCCCCCCCCCCc1cc(O)ccc1[N+](=O)[O-] | 0 (no)
7. O=C1/C(=C\c2cccn2Cc2ccc(Cl)cc2)c2ccccc2N1c1c(Cl)cccc1Cl | 0 (no)
8. O=c1[nH]cnc2nc[nH]c12 | 0 (no)

GET /call?item= Cc1ccc2oc(=O)cc(-c3nc4ccc([N+](=O)[O-])cc4[nH]3)c2c1 returns the recorded outcome of this test.
0 (no)

GET /call?item= COC(=O)CNS(=O)(=O)c1ccc2c(c1)Cc1cc(S(=O)(=O)NCC(=O)OC)ccc1-2 returns the recorded outcome of this test.
0 (no)

Ref: PubChem BioAssay (NCI)
